molecular target: SARS-CoV-2 3CL-protease (Severe acute respiratory syndrome coronavirus 2, UniProt P0DTD1); assay: biochemical; conditions: recombinant 3CL-protease 10 nM, substrate 40 μM, 30 min preincubation at RT; read-out: FRET IC50
pIC50: −log10 of the molar value.
Recorded metric: pIC50

Query: I have this compound here, CC(C)C[C@H]1C(=O)N[C@H](C#N)C[C@@H]2C[C@@H](CCCC[C@H](NC(=O)OC(C)(C)C)C(=O)N1C)NC2=O , and I need its recorded pIC50.
Reply: > 7.00

Query: What do you get for CC(C)C[C@H]1C(=O)N[C@H](C#N)C[C@@H]2C[C@@H](CCCC[C@H](NC(=O)c3ccccc3Cl)C(=O)N1C)NC2=O ?
Reply: > 7.00

Query: Likewise for CC(C)C[C@H]1C(=O)N[C@H](C#N)C[C@@H]2C[C@@H](CCCC[C@H](NC(=O)c3cc4c(F)cc(F)c(F)c4[nH]3)C(=O)N1C)NC2=O ?
Reply: 6.00 to 7.00

Query: Next entry: CC(C)C[C@H]1C(=O)N[C@H](C#N)C[C@@H]2C[C@@H](CCCCc3nc(-c4ccccc4Cl)oc3N1C)NC2=O
Reply: 6.00 to 7.00

Query: Another compound: CC(C)C[C@H]1C(=O)N[C@H](C#N)C[C@@H]2C[C@@H](CCCC[C@H](NC(=O)c3ccccn3)C(=O)N1C)NC2=O
Reply: > 7.00
